Consider the following sequences and their measured protein stability index readings.
assay: protein stability index of a GFP-peptide fusion (GPS, HEK-293T) (PSI 1-6); higher = more stable; conditions: treatment: MLN4924 1 uM, 8 h; c terminus: a fixed tail appended;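 further: 24-mer peptide tiles fused after GFP, lentivirally expressed, FACS-sorted into six equal bins by GFP/DsRed ratio, decoded by Illumina sequencing, PSI is the read-weighted mean bin number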

# annotated cases, reported protein stability index shown
sequenceInput: KSAILVPSEKKVAIIRTPPKSPAT [MAP2]
protein stability index: 4.41
--
sequenceInput: QAVVLCSKKTFQITKQGDGVDFLS [USP39]
protein stability index: 2.77
--
sequenceInput: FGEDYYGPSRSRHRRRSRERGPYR [CLK3]
protein stability index: 4.29

Query: Provide one value: measured protein stability index of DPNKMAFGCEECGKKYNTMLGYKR [PLAGL1]
Reply: 3.46

Query: Please report the measured protein stability index for FMTTNVPNVYPAAPQGGMAALNMS [ADD1]
Reply: 2.87

Query: Fill in reported protein stability index for this entry: VNVTIHFRLKTINLQSLINNEIPD [MCOLN1]
Reply: 3.21

Query: Query protein stability index for SGLGSCLPGSYLSSECHTSGFVGS [KRT36]
Reply: 2.69
